# ASSAYED TARGET: human CRTH2 (Homo sapiens, UniProt Q9Y5Y4)
# Construct: expressed in transfected cells; membranes used
# METHOD NOTES: [35S]GTPγS binding assay (SPA)
# Assay type: biochemical
PROPERTY MEASURED: IC50

> print(dat)
                                item.smiles      data.value
1  CN(Cc1cccc(-c2cc(C(F)(F)F)ccc2OCC(=O)O)c1)C(=O)Oc1ccccc1  100 to 1000 nM

---

IC50 overview
# ASSAYED TARGET: human CRTH2 (Homo sapiens)
# Construct: expressed in transfected cells; membranes used
# Sequence (Q9Y5Y4 1-395): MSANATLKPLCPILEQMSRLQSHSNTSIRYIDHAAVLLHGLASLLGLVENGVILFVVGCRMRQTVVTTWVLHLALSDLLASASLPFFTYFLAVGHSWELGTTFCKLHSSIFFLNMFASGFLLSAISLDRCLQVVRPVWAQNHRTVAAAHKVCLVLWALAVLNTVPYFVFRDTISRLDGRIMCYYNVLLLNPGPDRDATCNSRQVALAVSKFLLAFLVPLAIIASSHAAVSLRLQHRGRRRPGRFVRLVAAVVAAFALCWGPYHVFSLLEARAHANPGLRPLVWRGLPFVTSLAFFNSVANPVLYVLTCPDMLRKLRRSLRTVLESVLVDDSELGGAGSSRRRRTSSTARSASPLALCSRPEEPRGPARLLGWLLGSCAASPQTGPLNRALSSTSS
# METHOD NOTES: [35S]GTPγS binding assay (SPA)
# Format: biochemical
# CONDITION NOTES: membranes from CHO-K1 cells stably expressing human CRTH2; 60 nM DHK-PGD2; read-out: CRTH2 GTPγS assay IC50
PROPERTY MEASURED: IC50

> print(dat)
                                item.smiles      data.value
1  CCCCNC(=O)CN(Cc1cccc(-c2cc(C(F)(F)F)ccc2OCC(=O)O)c1)C(=O)OCCCC        < 100 nM
2  CN(Cc1cccc(-c2cc(C(F)(F)F)ccc2OCC(=O)O)c1)C(=O)Nc1ccccc1  100 to 1000 nM
3  CCCCNC(=O)CN(Cc1cccc(-c2cc(F)ccc2OCC(=O)O)c1)C(=O)OCCCC        < 100 nM
4  CN(Cc1cccc(-c2cc(C(F)(F)F)ccc2OCC(=O)O)c1)C(=O)Nc1cccnc1  100 to 1000 nM
5  CCCCNC(=O)CN(CCc1ccc(-c2ccccc2OCC(=O)O)cc1)C(=O)OCCCC        < 100 nM
6  CCCCNC(=O)CN(Cc1cccc(-c2ccccc2OCC(=O)O)c1)C(=O)OCCCC        < 100 nM
7  CNC(=O)CN(Cc1cccc(-c2cc(C(F)(F)F)ccc2OCC(=O)O)c1)C(C)=O  100 to 1000 nM
8  CCCCNC(=O)N(C)Cc1cccc(-c2cc(C(F)(F)F)ccc2OCC(=O)O)c1        < 100 nM

---

# ASSAYED TARGET: human CRTH2 (Homo sapiens, UniProt Q9Y5Y4)
# Construct: expressed in transfected cells; membranes used
# METHOD NOTES: [35S]GTPγS binding assay (SPA)
# Assay type: biochemical
# CONDITION NOTES: membranes from CHO-K1 cells stably expressing human CRTH2; 60 nM DHK-PGD2; read-out: CRTH2 GTPγS assay IC50
PROPERTY MEASURED: IC50

> print(dat)
                                item.smiles      data.value
1  CCCCOC(=O)N(C)Cc1cccc(-c2cc(C(F)(F)F)ccc2OCC(=O)O)c1        < 100 nM
2  CN(Cc1cccc(-c2cc(C(F)(F)F)ccc2OCC(=O)O)c1)C(=O)c1ccccc1  100 to 1000 nM
3  CN(Cc1cccc(-c2cc(C(F)(F)F)ccc2OCC(=O)O)c1)C(=O)c1cccnc1        < 100 nM
4  CCCCOC(=O)N(Cc1cccc(-c2cc(C(F)(F)F)ccc2OCC(=O)O)c1)Cc1nccs1        < 100 nM

Values were extracted from patent US20110136877A1.
